Exercise: for every item that follows, state its recorded GR binding RBA (dex = 100).
System Name: glucocorticoid receptor (GR) (Homo sapiens, UniProt P04150)
Construct: purchased Panvera Corp, Madison, Wis
Sequence (P04150 1-777): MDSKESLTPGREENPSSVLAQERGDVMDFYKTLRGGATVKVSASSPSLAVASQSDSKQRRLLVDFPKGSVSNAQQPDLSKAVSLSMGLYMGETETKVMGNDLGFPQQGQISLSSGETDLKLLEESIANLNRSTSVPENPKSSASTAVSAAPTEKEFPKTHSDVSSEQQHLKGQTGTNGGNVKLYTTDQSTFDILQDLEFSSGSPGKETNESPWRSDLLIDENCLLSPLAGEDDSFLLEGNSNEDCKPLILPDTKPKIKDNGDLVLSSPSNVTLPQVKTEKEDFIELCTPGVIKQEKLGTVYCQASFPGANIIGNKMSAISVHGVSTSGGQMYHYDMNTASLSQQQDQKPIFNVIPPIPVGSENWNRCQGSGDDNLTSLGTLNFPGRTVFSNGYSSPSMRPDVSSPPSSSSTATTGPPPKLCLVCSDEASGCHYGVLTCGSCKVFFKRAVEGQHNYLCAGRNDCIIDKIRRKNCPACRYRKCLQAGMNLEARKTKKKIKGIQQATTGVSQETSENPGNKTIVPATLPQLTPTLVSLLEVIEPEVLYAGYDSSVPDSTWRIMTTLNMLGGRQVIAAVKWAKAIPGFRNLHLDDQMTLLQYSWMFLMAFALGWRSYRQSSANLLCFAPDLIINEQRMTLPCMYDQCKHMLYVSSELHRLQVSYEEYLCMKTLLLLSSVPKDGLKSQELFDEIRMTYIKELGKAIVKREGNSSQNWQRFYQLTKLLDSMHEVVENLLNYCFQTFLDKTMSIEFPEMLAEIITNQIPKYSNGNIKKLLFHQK
Experiment Notes: Glucocorticoid Receptor Competitor Assay Kit (Panvera) ligand binding
Assay Context: Table 3; relative binding affinity, dexamethasone = 100
Could you respond with only the numeric value?

Please supply the value of reported GR binding RBA (dex = 100) for the item CC12Cc3cnn(-c4ccc(F)cc4)c3C=C1CCCC2C(O)c1cccc(O)c1 (centres unmarked)
52

Please supply the value of reported GR binding RBA (dex = 100) for the item CC12Cc3cnn(-c4ccc(F)cc4)c3C=C1CCCC2C(O)c1cc2ccccc2c2ccccc12 (centres unmarked)
72

Please supply the value of reported GR binding RBA (dex = 100) for the item Cc1cc(O)cc(C)c1C(O)C1CCCC2=Cc3c(cnn3-c3ccc(F)cc3)CC21C (centres unmarked)
103

Please supply the value of reported GR binding RBA (dex = 100) for the item CC12Cc3cnn(-c4ccc(F)cc4)c3C=C1CCCC2C(O)c1csc2ccccc12 (centres unmarked)
93

Please supply the value of reported GR binding RBA (dex = 100) for the item CC12Cc3cnn(-c4ccc(F)cc4)c3C=C1CCCC2C(O)c1ccc(O)cc1 (centres unmarked)
36

Please supply the value of reported GR binding RBA (dex = 100) for the item Cc1cc(C(O)C2CCCC3=Cc4c(cnn4-c4ccc(F)cc4)CC32C)ccc1O (centres unmarked)
110

Please supply the value of reported GR binding RBA (dex = 100) for the item CC12Cc3cnn(-c4ccc(F)cc4)c3C=C1CCCC2C(O)c1cccc2[nH]ccc12 (centres unmarked)
110

Please supply the value of reported GR binding RBA (dex = 100) for the item COc1cc(C(O)C2CCCC3=Cc4c(cnn4-c4ccc(F)cc4)CC32C)cc(OC)c1OC (centres unmarked)
47

###

System Name: MR (Homo sapiens)
Sequence (P08235 whole entry): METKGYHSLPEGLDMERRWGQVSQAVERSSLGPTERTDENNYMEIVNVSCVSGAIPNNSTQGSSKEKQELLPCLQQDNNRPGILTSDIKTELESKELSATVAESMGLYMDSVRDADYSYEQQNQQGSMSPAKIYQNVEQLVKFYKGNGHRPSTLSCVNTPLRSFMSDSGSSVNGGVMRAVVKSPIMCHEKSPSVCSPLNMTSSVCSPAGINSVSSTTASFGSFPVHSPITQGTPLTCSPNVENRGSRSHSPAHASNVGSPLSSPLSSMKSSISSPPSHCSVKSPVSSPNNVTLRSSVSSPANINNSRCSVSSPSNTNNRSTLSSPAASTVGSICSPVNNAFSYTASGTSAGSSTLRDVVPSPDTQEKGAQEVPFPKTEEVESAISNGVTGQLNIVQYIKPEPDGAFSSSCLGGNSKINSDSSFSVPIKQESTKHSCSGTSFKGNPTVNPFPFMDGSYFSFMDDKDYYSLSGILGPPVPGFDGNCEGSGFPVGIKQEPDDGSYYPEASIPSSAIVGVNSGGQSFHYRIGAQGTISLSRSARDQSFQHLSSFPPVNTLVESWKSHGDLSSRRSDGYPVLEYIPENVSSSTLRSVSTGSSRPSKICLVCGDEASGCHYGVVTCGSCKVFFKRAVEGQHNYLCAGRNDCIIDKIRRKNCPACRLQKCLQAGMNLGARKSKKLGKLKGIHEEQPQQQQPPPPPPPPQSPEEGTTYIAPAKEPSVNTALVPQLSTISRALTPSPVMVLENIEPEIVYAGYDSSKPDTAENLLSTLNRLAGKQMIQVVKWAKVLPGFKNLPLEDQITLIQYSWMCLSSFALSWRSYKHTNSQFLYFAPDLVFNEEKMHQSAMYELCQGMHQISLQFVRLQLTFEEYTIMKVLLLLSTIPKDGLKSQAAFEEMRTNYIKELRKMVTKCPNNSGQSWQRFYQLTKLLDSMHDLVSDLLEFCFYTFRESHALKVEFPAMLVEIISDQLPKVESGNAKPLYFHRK
Experiment Notes: MR activation (max fold activation)
Type: cell-based
Assay Context: Table 4
Metric Name: MR max fold activation

Please supply the value of reported MR max fold activation for the item CC12Cc3cnn(-c4ccc(F)cc4)c3C=C1CCCC2C(O)c1cccc2[nH]ccc12 (stereo not shown) [Compound 237]
5.0 ± 1.5

Please supply the value of reported MR max fold activation for the item C[C@]12CCC(=O)C=C1CC[C@@H]1[C@@H]2[C@@H](O)C[C@]2(C=O)[C@@H](C(=O)CO)CC[C@@H]12 [Aldosterone, reference compound]
6.1 ± 1.5

Please supply the value of reported MR max fold activation for the item CC12Cc3cnn(-c4ccc(F)cc4)c3C=C1CCCC2C(O)c1ccc(O)cc1 (stereo not shown) [Compound 231]
2.9 ± 0.5

Please supply the value of reported MR max fold activation for the item CC12Cc3cnn(-c4ccc(F)cc4)c3C=C1CCCC2C(O)c1cccc(O)c1 (stereo not shown) [Compound 229]
3.1 ± 1.0

###

System Name: glucocorticoid receptor (GR) (Homo sapiens, UniProt P04150)
Construct: purchased Panvera Corp, Madison, Wis
Experiment Notes: Glucocorticoid Receptor Competitor Assay Kit (Panvera) ligand binding
Assay Context: read-out: IC50 in a GR binding assay
Metric Name: IC50 (µM)
Give just the numeric value; µM need not be written.

Please supply the value of reported IC50 for the item CC12Cc3cnn(-c4ccc(F)cc4)c3C=C1CCCC2=O (centres unmarked)
0.436

Please supply the value of reported IC50 for the item CC12Cc3cnn(-c4cccc(C#Cc5ccccc5)c4)c3C=C1CCCC2=O (centres unmarked)
0.174

###

System Name: GR (Homo sapiens)
Construct: expressed in transfected cells; host or cells: CV-1 cells, transient transfection (plasmid a gift of Keith Yamamoto, UCSF)
Experiment Notes: GRE (TAT3-Luc) activation luciferase assay in CV-1 cells transfected with GR
Type: cell-based
Assay Context: Table 1; read-out: GR pot(EC50)
Exercise: for every item that follows, state its recorded pEC50.
// field semantics: pEC50 = negative decimal log of concentration (mol/L)

Please supply the value of reported pEC50 for the item COCOC(c1c(C)cc(O)cc1C)C1CCCC2=Cc3c(cnn3-c3ccc(F)cc3)CC21C (centres unmarked) [Compound 232]
7.09

Please supply the value of reported pEC50 for the item Cc1cc(O)cc(C)c1C(O)C1CCCC2=Cc3c(cnn3-c3ccc(F)cc3)CC21C (centres unmarked) [Compound 227]
6.90

###

System Name: GR (Rattus norvegicus)
Construct: expressed in transfected cells; gift of Keith Yamamoto
Sequence (P06536 whole entry): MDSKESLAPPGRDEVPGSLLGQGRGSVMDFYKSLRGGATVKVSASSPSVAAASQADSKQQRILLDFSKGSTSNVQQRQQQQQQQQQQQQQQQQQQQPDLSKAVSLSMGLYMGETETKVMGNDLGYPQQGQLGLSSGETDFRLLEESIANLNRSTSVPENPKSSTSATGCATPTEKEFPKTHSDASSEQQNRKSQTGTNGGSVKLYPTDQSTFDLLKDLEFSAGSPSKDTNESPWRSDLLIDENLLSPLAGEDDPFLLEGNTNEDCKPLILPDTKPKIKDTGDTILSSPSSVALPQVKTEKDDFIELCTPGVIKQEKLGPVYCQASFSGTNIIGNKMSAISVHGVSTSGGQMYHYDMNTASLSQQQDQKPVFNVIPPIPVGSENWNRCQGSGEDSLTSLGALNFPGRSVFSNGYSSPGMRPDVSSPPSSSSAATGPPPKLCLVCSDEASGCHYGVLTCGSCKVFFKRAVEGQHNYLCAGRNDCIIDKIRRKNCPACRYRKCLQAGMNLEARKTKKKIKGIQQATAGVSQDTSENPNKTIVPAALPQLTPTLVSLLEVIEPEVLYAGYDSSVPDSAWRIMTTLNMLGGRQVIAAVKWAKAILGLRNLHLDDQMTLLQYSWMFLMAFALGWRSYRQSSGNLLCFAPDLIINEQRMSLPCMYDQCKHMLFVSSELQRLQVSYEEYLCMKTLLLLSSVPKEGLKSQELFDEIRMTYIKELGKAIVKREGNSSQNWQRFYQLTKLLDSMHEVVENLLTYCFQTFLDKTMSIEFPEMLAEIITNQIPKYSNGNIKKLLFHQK
Experiment Notes: AP-1 repression luciferase assay in U2OS cells stably transfected with rat GR
Assay type: cell-based
Assay Context: U2OS, 12 h, Table 5; TPA-stimulated U2OS cells; read-out: Repression AP-1 % max repression
Method: For API repression assays, U2OS cells stably transfected with rat GR were grown in similar media as for CV-1 cells with the exception of the FBS concentration, which was 10% and the only antibiotic was […]. Cells were plated and transfected in a similar fashion, except for plasmids, which in this case were 50 ng/well AP1-Luc and 10 ng/well β-galactosidase. […]
Metric Name: Emax (%)
Give just the numeric value; % need not be written.

Please supply the value of reported Emax for the item CC12Cc3cnn(-c4ccc(F)cc4)c3C=C1CCCC2C(O)c1cccc(O)c1 (centres unmarked)
77

Please supply the value of reported Emax for the item CC12Cc3cnn(-c4ccc(F)cc4)c3C=C1CCCC2C(O)c1cccc2[nH]ccc12 (centres unmarked)
80

Please supply the value of reported Emax for the item COc1cc(C(O)C2CCCC3=Cc4c(cnn4-c4ccc(F)cc4)CC32C)cc(OC)c1OC (centres unmarked)
74

Please supply the value of reported Emax for the item CC12Cc3cnn(-c4ccc(F)cc4)c3C=C1CCCC2C(O)c1ccsc1 (centres unmarked)
75

Please supply the value of reported Emax for the item CC12Cc3cnn(-c4ccc(F)cc4)c3C=C1CCCC2C(O)c1csc2ccccc12 (centres unmarked)
74

Please supply the value of reported Emax for the item Cc1cc(C(O)C2CCCC3=Cc4c(cnn4-c4ccc(F)cc4)CC32C)ccc1O (centres unmarked)
74

Please supply the value of reported Emax for the item Cc1cc(O)cc(C)c1C(O)C1CCCC2=Cc3c(cnn3-c3ccc(F)cc3)CC21C (centres unmarked)
77

Please supply the value of reported Emax for the item CC12Cc3cnn(-c4ccc(F)cc4)c3C=C1CCCC2C(O)c1ccc(O)cc1 (centres unmarked)
68

###

System Name: GR (Homo sapiens, UniProt P04150)
Construct: expressed in transfected cells; host or cells: CV-1 cells, transient transfection (plasmid a gift of Keith Yamamoto, UCSF)
Experiment Notes: GRE (TAT3-Luc) activation luciferase assay in CV-1 cells transfected with GR
Type: cell-based
Assay Context: Table 4; fold
Exercise: for every item that follows, state its recorded GRE activation max fold activation.
Could you respond with only the numeric value?

Please supply the value of reported GRE activation max fold activation for the item CC12Cc3cnn(-c4ccc(F)cc4)c3C=C1CCCC2C(O)c1cccc2[nH]ccc12 (stereo not shown) [Compound 237]
92

Please supply the value of reported GRE activation max fold activation for the item Cc1cc(C(O)C2CCCC3=Cc4c(cnn4-c4ccc(F)cc4)CC32C)ccc1O (stereo not shown) [Compound 235]
76

Please supply the value of reported GRE activation max fold activation for the item CC12Cc3cnn(-c4ccc(F)cc4)c3C=C1CCCC2C(O)c1cccc(O)c1 (stereo not shown) [Compound 229]
55

Please supply the value of reported GRE activation max fold activation for the item CC12Cc3cnn(-c4ccc(F)cc4)c3C=C1CCCC2C(O)c1ccc(O)cc1 (stereo not shown) [Compound 231]
69
